target: Metallo-beta-lactamase type 2 (Bacteria, UniProt C7C422); assay: Competitive inhibition of NDM-1 using imipenem as substrate by spectrophotometric analysis
recorded.endpoint: Ki (µM)

>  <query.smiles>
COc1ccc(/C=C2\Oc3c(ccc(O)c3O)C2=O)c(O)c1

>  <target.under.test>
Metallo-beta-lactamase type 2 (Bacteria, UniProt C7C422)

>  <recorded.endpoint>
Ki

>  <value>
1.7

$$$$
>  <query.smiles>
O=C1/C(=C/c2cn(Cc3cccc(O)c3)c3ccccc23)Oc2cc(O)cc(O)c21

>  <target.under.test>
Metallo-beta-lactamase type 2 (Bacteria, UniProt C7C422)

>  <recorded.endpoint>
Ki

>  <value>
16

$$$$
>  <query.smiles>
O=C1/C(=C/c2ccc(N3CCCCC3)cc2)Oc2cc(O)cc(O)c21

>  <target.under.test>
Metallo-beta-lactamase type 2 (Bacteria, UniProt C7C422)

>  <recorded.endpoint>
Ki

>  <value>
4.8

$$$$

A = O=C1/C(=C/c2cn(Cc3cccc(Br)c3)c3ccccc23)Oc2cc(O)cc(O)c21
B = O=C1/C(=C/c2cn(CCCc3ccccc3)c3ccccc23)Oc2cc(O)cc(O)c21
C = O=C1/C(=C/c2cn(CC3CCCCC3)c3ccccc23)Oc2cc(O)cc(O)c21
*Q* Put the entries in order of Ki, starting with the largest number. Record the ranking as a list of labels in the requested order.
*A* B, A, C

---

tested on: Bacteria; test: Inhibition of bacterial IMP-1 assessed as substrate hydrolysis at 50 uM using imipenem as substrate by spectrophotometric analysis relative to control
recorded.endpoint: inhibition (%)

A = O=C1/C(=C/c2ccc(Cl)cc2)Oc2cc(O)cc(O)c21
B = Cn1cc(/C=C2\Oc3cc(O)ccc3C2=O)c2cc(Br)ccc21
C = CCc1ccc(/C=C2\Oc3cc(O)cc(O)c3C2=O)cc1
*Q* Hey, can you sort those compounds up there by inhibition, smallest first? Record the ranking as a list of labels in the requested order.
*A* A, C, B
(A: 14%, C: 24.9%, B: 39%)

P = O=C1/C(=C/c2ccc(C(F)(F)F)cc2)Oc2c1ccc(O)c2O
Q = O=C1/C(=C/c2cn(Cc3cccc(O)c3)c3ccccc23)Oc2cc(O)cc(O)c21
*Q* Hi there, can you help? I need to know whether P or Q has lower measured inhibition. // return label of chosen record
*A* P

P = Cc1ccc(O)c(/C=C2\Oc3cc(O)cc(O)c3C2=O)c1
Q = O=C1/C(=C/c2ccc(O)cc2O)Oc2c1ccc(O)c2O
*Q* Name the one with the greater inhibition value, either P or Q as given. // return label of chosen record
*A* Q
(Q: 24%, P: 12%)

---

test system: Bacteria; experiment: Inhibition of bacterial IMP-1 assessed as substrate hydrolysis at 50 uM using imipenem as substrate by spectrophotometric analysis relative to control
recorded.endpoint: inhibition (%)

>  <query.smiles>
CN1CCN(c2ccc(/C=C3\Oc4cccc(O)c4C3=O)cc2)CC1

>  <unit.text>
%

>  <value>
12

$$$$
>  <query.smiles>
COc1cc(OC)c2c(c1)O/C(=C\c1ccc(-c3cccs3)cc1)C2=O

>  <unit.text>
%

>  <value>
24

$$$$
>  <query.smiles>
COc1ccc(/C=C2\Oc3cc(O)cc(O)c3C2=O)cc1

>  <unit.text>
%

>  <value>
20

$$$$
>  <query.smiles>
O=C1/C(=C/c2ccc(-n3ccnc3)cc2)Oc2cc(O)cc(O)c21

>  <unit.text>
%

>  <value>
23

$$$$
>  <query.smiles>
C=CCn1cc(/C=C2\Oc3cc(O)cc(O)c3C2=O)c2ccccc21

>  <unit.text>
%

>  <value>
16

$$$$

A = CCCCOc1ccc(/C=C2\Oc3cc(O)cc(O)c3C2=O)cc1
B = O=C1/C(=C/c2cn(Cc3cccc(Br)c3)c3ccccc23)Oc2cc(O)cc(O)c21
*Q* Name the one with the greater inhibition value, either A or B as given. // return label of chosen record
*A* B
(B: 43%, A: 25%)

---

Reported values of inhibition for individual entries
molecular target: Metallo-beta-lactamase type 2 (Bacteria) (UniProt C7C422); assay: Inhibition of bacterial NDM-1 assessed as substrate hydrolysis at 50 uM using imipenem as substrate by spectrophotometric analysis relative to control
Sequence (C7C422 whole entry): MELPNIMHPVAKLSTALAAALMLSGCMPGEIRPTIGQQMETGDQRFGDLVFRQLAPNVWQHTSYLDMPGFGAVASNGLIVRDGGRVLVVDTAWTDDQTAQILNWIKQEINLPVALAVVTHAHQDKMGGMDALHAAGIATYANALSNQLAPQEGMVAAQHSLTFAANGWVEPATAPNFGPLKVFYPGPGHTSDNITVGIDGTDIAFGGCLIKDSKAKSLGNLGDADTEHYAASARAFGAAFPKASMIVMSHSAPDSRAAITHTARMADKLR

Sample records with inhibition:
>  <query.smiles>
CCCCc1ccc(/C=C2\Oc3c(ccc(O)c3O)C2=O)cc1

>  <target.under.test>
Metallo-beta-lactamase type 2 (Bacteria) (UniProt C7C422)

>  <recorded.endpoint>
inhibition

>  <value>
< 10%

$$$$
>  <query.smiles>
Cc1ccc(O)c(/C=C2\Oc3cc(O)cc(O)c3C2=O)c1

>  <target.under.test>
Metallo-beta-lactamase type 2 (Bacteria) (UniProt C7C422)

>  <recorded.endpoint>
inhibition

>  <value>
< 10%

$$$$
>  <query.smiles>
C=CCn1cc(/C=C2\Oc3cc(O)cc(O)c3C2=O)c2ccccc21

>  <target.under.test>
Metallo-beta-lactamase type 2 (Bacteria) (UniProt C7C422)

>  <recorded.endpoint>
inhibition

>  <value>
< 10%

$$$$
>  <query.smiles>
CC[C@H](C)Cn1cc(/C=C2\Oc3cc(O)cc(O)c3C2=O)c2ccccc21

>  <target.under.test>
Metallo-beta-lactamase type 2 (Bacteria) (UniProt C7C422)

>  <recorded.endpoint>
inhibition

>  <value>
49%

$$$$
>  <query.smiles>
COc1cc(O)ccc1/C=C1\Oc2ccccc2C1=O

>  <target.under.test>
Metallo-beta-lactamase type 2 (Bacteria) (UniProt C7C422)

>  <recorded.endpoint>
inhibition

>  <value>
< 10%

$$$$

*Q* What inhibition appears in the records for this molecule with Metallo-beta-lactamase type 2 (Bacteria) (UniProt C7C422)? O=C1/C(=C/c2ccc(Cl)cc2)Oc2c(O)cccc21
*A* < 10%

*Q* What inhibition appears in the records for this molecule with Metallo-beta-lactamase type 2 (Bacteria) (UniProt C7C422)? O=C1/C(=C/c2ccc(O)cc2O)Oc2c1ccc(O)c2O
*A* 20%

*Q* What inhibition appears in the records for this molecule with Metallo-beta-lactamase type 2 (Bacteria) (UniProt C7C422)? O=C1/C(=C/c2ccc(O)cc2O)Oc2c(O)cccc21
*A* < 10%

*Q* What inhibition appears in the records for this molecule with Metallo-beta-lactamase type 2 (Bacteria) (UniProt C7C422)? O=C1/C(=C/c2ccc(C3CCCCC3)cc2)Oc2cc(O)cc(O)c21
*A* 16%

*Q* What inhibition appears in the records for this molecule with Metallo-beta-lactamase type 2 (Bacteria) (UniProt C7C422)? Cn1cc(/C=C2\Oc3cccc(O)c3C2=O)c2cc(Br)ccc21
*A* < 10%

---

tested on: Bacteria; assay: Inhibition of bacterial IMP-1 assessed as substrate hydrolysis at 50 uM using imipenem as substrate by spectrophotometric analysis relative to control
recorded.endpoint: inhibition (%)

>  <query.smiles>
COc1ccc(/C=C2\Oc3cc(O)cc(O)c3C2=O)c(OC)c1OC

>  <target.under.test>
Bacteria

>  <value>
20

$$$$

I = O=C1/C(=C/c2cn(CC3CCCCC3)c3ccccc23)Oc2cc(O)cc(O)c21
II = COc1ccc(/C=C2\Oc3cc(O)ccc3C2=O)c(OC)c1
*Q* Name the one with the greater inhibition value, either I or II as given. // return label of chosen record
*A* I

---

Reported values of inhibition for individual entries
system: Bacteria; assay: Inhibition of bacterial VIM-2 assessed as substrate hydrolysis at 50 uM using imipenem as substrate by spectrophotometric analysis relative to control

Sample records with inhibition:
>  <query.smiles>
C=CCn1cc(/C=C2\Oc3cc(O)cc(O)c3C2=O)c2ccccc21

>  <recorded.endpoint>
inhibition

>  <value>
< 10%

$$$$
>  <query.smiles>
COc1cc(OC)c2c(c1)O/C(=C\c1ccc(OC)c(OC)c1OC)C2=O

>  <recorded.endpoint>
inhibition

>  <value>
< 10%

$$$$

*Q* Reported inhibition for COc1ccc(/C=C2\Oc3c(ccc(O)c3O)C2=O)c(OC)c1 : what is it?
*A* 10.3%

*Q* Reported inhibition for CCCCn1cc(/C=C2\Oc3cc(O)cc(O)c3C2=O)c2cc(O)ccc21 : what is it?
*A* < 10%

---

test system: Escherichia coli; assay: Potentiation of meropenem induced antibacterial activity against blaNDM-1 producing Escherichia coli SI-004M assessed as reduction in meropenem MIC at 32 ug/ml (reference value: 64 ug/ml); format: functional; settings: dose 32 µg/ml
recorded.endpoint: MIC (µg/mL)

Sample records with MIC:
>  <query.smiles>
O=C1/C(=C/c2cn(Cc3cccc(O)c3)c3ccccc23)Oc2cc(O)cc(O)c21

>  <value>
64

$$$$
>  <query.smiles>
COc1ccc(/C=C2\Oc3c(ccc(O)c3O)C2=O)c(O)c1

>  <value>
32

$$$$
>  <query.smiles>
O=C1/C(=C/c2cn(CCCc3ccccc3)c3ccccc23)Oc2cc(O)cc(O)c21

>  <value>
32

$$$$
>  <query.smiles>
O=C1/C(=C/c2ccc(N3CCCCC3)cc2)Oc2cc(O)cc(O)c21

>  <value>
64

$$$$

P = O=C1/C(=C/c2cn(CC3CCCCC3)c3ccccc23)Oc2cc(O)cc(O)c21
Q = O=C1/C(=C/c2cn(Cc3cccc(Br)c3)c3ccccc23)Oc2cc(O)cc(O)c21
*Q* Hi there, can you help? I need to know whether P or Q has lower measured MIC. // return label of chosen record
*A* Q
(Q: 32 µg/mL, P: 64 µg/mL)
